pest or weed control at 125 g/ha: recorded values
Test system: Alopecurus myosuroides (ALOMY)
test: Test Example 1 post-emergence herbicidal activity
Format: in vivo
experimentalParameters: 360 h, rate 125 g/ha, evaluated 15 days later, read-out: Post-emergence activity ALOMY (100=total damage to plant; 0=no damage to plant)
# number only, unit % dropped from output

In [3]: df
Out[3]:
                                   compound                      quantityname  valuereported
0  CCc1cc(C)cc(CC)c1C1=C(O)[C@@H]2[C@@H]3O[C@@H](C[C@H]3c3cc(C(F)(F)F)ccc3Cl)[C@@H]2C1=O [Example T169]  pest or weed control at 125 g/ha             90
1  Cc1cc(C)c(C2=C(OC(=O)C(C)C)[C@H]3[C@@H](C2=O)[C@@H]2CC[C@H]3O2)c(C)c1 [Example P10]  pest or weed control at 125 g/ha            100
2  CCc1cc(C)cc(CC)c1C1=C(O)[C@H]2[C@@H](C1=O)[C@@H]1C=C[C@H]2O1 [Example T4]  pest or weed control at 125 g/ha             80
3  CCc1cc(C)cc(CC)c1C1=C(O)[C@@H]2[C@@H]3O[C@@H](C[C@H]3c3ccc(C)cc3Cl)[C@@H]2C1=O [Example T143]  pest or weed control at 125 g/ha             40
4  Cc1cc(C)c(C2=C(O)[C@@H]3[C@@H]4O[C@@H](C[C@H]4c4cc(C(F)(F)F)nc(C(F)(F)F)c4)[C@@H]3C2=O)c(C)c1 (racemic) [Example T199]  pest or weed control at 125 g/ha            100

// next item, pest or weed control at 125 g/ha requested
Req: Give recorded pest or weed control at 125 g/ha. Cc1cc(C)c(C2=C(O)[C@H]3[C@@H](C2=O)[C@@H]2CC[C@@]3(C)O2)c(C)c1 (racemic) [Example T9]
Resp: 80

###

Test system: Alopecurus myosuroides (ALOMY)
test: Test Example 1 post-emergence herbicidal activity
Format: in vivo
experimentalParameters: 360 h, rate 125 g/ha, evaluated 15 days later, read-out: Post-emergence activity ALOMY (100=total damage to plant; 0=no damage to plant)
# Lookup of reported pest or weed control at 125 g/ha keyed by entry
Report as a plain number; the unit % is understood.

# count of solved cases: 3
>>> df
                                   molecule  valuereported
0  CCCCC[C@]12C=C[C@H](O1)[C@@H]1C(=O)C(c3c(C)cc(C)cc3C)=C(O)[C@@H]12 (racemic)              0
1  CCCNC(=O)OC[C@]12CC[C@H](O1)[C@@H]1C(=O)C(c3c(CC)cc(C)cc3CC)=C(O)[C@@H]12             90
2  CCc1cc(C)cc(CC)c1C1=C(O)[C@@H]2[C@@H]3O[C@@H](C[C@H]3c3cccc(C#N)c3)[C@@H]2C1=O            100

Req: Give the value of pest or weed control at 125 g/ha reported for the following: Cc1cc(C)c(C2=C(O)[C@@H]3[C@@H]4O[C@@H](C[C@H]4c4ccc(C#N)cc4)[C@@H]3C2=O)c(C)c1
Resp: 60

Req: Return reported pest or weed control at 125 g/ha. Input molecule: C=CCC(=O)OC1=C(c2c(CC)cc(C)cc2CC)C(=O)[C@@H]2[C@H]1[C@H]1CC[C@@H]2O1
Resp: 100

Req: For the molecule CCc1cc(CC)c(C2=C(O)[C@H]3[C@@H](C2=O)[C@@H]2CC[C@H]3O2)c(CC)c1 , give its measured pest or weed control at 125 g/ha value.
Resp: 70
